- Test system: Aspergillus niger
- method.description: Antimicrobial activity against Aspergillus niger OU S-23 assessed as zone of inhibition after 48 hrs at 4 mg/0.1 ml by agar diffusion method
- Assay type: functional

compound: CC(CNC12CC3CC(CC(C3)C1)C2)C(=O)c1ccccc1.Cl (stereo not given)
measurement.units: mm
comparison.symbol: =
inhibition zone (IZ): 15

compound: Cl.O=C(CCNC12CC3CC(CC(C3)C1)C2)c1ccc(O)cc1
measurement.units: mm
comparison.symbol: =
inhibition zone (IZ): 15

compound: Cl.O=C(CCNC12CC3CC(CC(C3)C1)C2)c1ccc(F)cc1
measurement.units: mm
comparison.symbol: =
inhibition zone (IZ): 15

compound: Cl.O=C(CCNC12CC3CC(CC(C3)C1)C2)c1cccc(Br)c1
measurement.units: mm
comparison.symbol: =
inhibition zone (IZ): 16.8

compound: Oc1ccc(-c2ccccc2)cc1CNC12CC3CC(CC(C3)C1)C2
measurement.units: mm
comparison.symbol: <
inhibition zone (IZ): 15

* * *

- Tested on: Mycolicibacterium phlei
- method.description: Antimicrobial activity against Mycobacterium phlei ATCC 356 assessed as zone of inhibition after 48 hrs at 0.5 mg/0.1 ml by agar diffusion method
- Format: functional

compound: Oc1ccc(/N=N/c2ccccc2)cc1CNC12CC3CC(CC(C3)C1)C2
comparison.symbol: <
inhibition zone (IZ), mm: 15
//
compound: CC(CNC12CC3CC(CC(C3)C1)C2)C(=O)c1ccccc1.Cl (stereo not given)
comparison.symbol: =
inhibition zone (IZ), mm: 17.3
//
compound: Cl.O=C(CCNC12CC3CC(CC(C3)C1)C2)c1ccc(F)cc1
comparison.symbol: =
inhibition zone (IZ), mm: 17.7
//
compound: Cl.O=C(CCNC12CC3CC(CC(C3)C1)C2)c1cccc([N+](=O)[O-])c1
comparison.symbol: =
inhibition zone (IZ), mm: 19.1
//
compound: Cl.O=C(CCNC12CC3CC(CC(C3)C1)C2)c1ccc(O)cc1
comparison.symbol: =
inhibition zone (IZ), mm: 16.3

* * *

- Test system: Mycolicibacterium smegmatis
- method.description: Antimicrobial activity against Mycobacterium smegmatis by tube dilution method
- Format: functional
Listing: MIC of selected compounds
property.name: MIC (µg/mL)

chem.smiles: Oc1ccc(-c2ccccc2)cc1CNC12CC3CC(CC(C3)C1)C2
property.name: MIC
measurement.units: µg/mL
quantitative.readout: 62.5
--
chem.smiles: Cl.O=C(CCNC12CC3CC(CC(C3)C1)C2)c1cccc(Br)c1
property.name: MIC
measurement.units: µg/mL
quantitative.readout: 125
--
chem.smiles: Cl.O=C(CCNC12CC3CC(CC(C3)C1)C2)c1ccc(Br)cc1
property.name: MIC
measurement.units: µg/mL
quantitative.readout: 125
--
chem.smiles: Cl.O=C(CCNC12CC3CC(CC(C3)C1)C2)c1ccc(F)cc1
property.name: MIC
measurement.units: µg/mL
quantitative.readout: 250
--
chem.smiles: Cl.O=C(CCNC12CC3CC(CC(C3)C1)C2)c1ccc([N+](=O)[O-])cc1
property.name: MIC
measurement.units: µg/mL
quantitative.readout: 500

* * *

- Tested on: Escherichia coli
- method.description: Antimicrobial activity against Escherichia coli by tube dilution method
- Type: functional
property.name: MIC (µg/mL)

chem.smiles: Cl.O=C(CCNC12CC3CC(CC(C3)C1)C2)c1cccc(Br)c1
quantitative.readout: 500
--
chem.smiles: Cl.O=C(CCNC12CC3CC(CC(C3)C1)C2)c1ccc(F)cc1
quantitative.readout: 1000
--
chem.smiles: Cl.O=C(CCNC12CC3CC(CC(C3)C1)C2)c1ccc([N+](=O)[O-])cc1
quantitative.readout: 500
--
chem.smiles: Cl.O=C(CCNC12CC3CC(CC(C3)C1)C2)c1ccc(Br)cc1
quantitative.readout: 500
